Measurement Target: recombinant human TFPI (tissue factor pathway inhibitor) (human, UniProt P10646 29-304)
Method Summary: cell-based or functional assay
Recorded Endpoint: FXa assay OD, 5 nM Ab, 10 nM TFPI
Just the number, please.

1. clone 1023 (antibody, V domains shown, scFv on yeast at selection; human IgG4/kappa IgG as purified) VH: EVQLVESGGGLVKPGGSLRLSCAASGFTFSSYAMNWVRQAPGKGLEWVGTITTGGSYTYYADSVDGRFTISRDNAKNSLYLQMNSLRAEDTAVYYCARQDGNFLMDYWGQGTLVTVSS VL: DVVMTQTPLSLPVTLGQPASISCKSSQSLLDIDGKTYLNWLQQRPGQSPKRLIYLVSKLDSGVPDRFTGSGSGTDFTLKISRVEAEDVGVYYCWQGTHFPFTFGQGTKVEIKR: 0.203

Then this binder:
Looking up clone 1 (antibody, V domains shown) VH: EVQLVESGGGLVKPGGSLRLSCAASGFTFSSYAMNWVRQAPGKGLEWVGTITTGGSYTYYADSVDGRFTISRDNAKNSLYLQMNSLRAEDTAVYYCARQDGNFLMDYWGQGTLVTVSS VL: DVVMTQTPLSLPVTLGQPASISCKSSPSLLDSDGKTYLNWLQQRPGQSPKRLIYLVSKLDSGVPDRFTGSGSGTDFTLKISRVEAEDVGVYYCWQGTHFPFTFGQGTKVEIKR , I found its FXa assay OD, 5 nM Ab, 10 nM TFPI recorded as 0.131
